- System: ACHN
- ASSAY NAME: NCI tumour cell line growth inhibition, 48 h
Calls of active or inactive are those of the source. Cut-off read from the data, not from the text of the source: active = GI50 up to about 1.1 µM and inactive = higher.
Answer each item with its documented GI50.

Req: Reported GI50, compound COc1nc2ncc([C@@H](O)[C@H](O)CO)nc2c(=O)[nH]1 : ____
Resp: > 100 µM (inactive)

Req: Reported GI50, compound CC(=O)OCC1OC(n2c3c(cc(C#N)c2=S)CCCCCC3)C(OC(C)=O)C(OC(C)=O)C1OC(C)=O (centres undefined) : ____
Resp: > 100 µM (inactive)

Req: Reported GI50, compound c1ccc2nc3c(nc2c1)sc1nc2ccccc2n13 : ____
Resp: 92 µM (inactive)

Req: Reported GI50, compound COc1cc2oc(=O)cc(C)c2c(OC)c1OC(C)=O : ____
Resp: > 100 µM (inactive)

Req: Reported GI50, compound Cn1nc(-c2ccccc2)c(N=[N+]=[N-])cc1=O : ____
Resp: > 100 µM (inactive)

Req: Reported GI50, compound CCCCN(CCCC)C(=O)C(=O)C(C#N)c1ccc(C)cc1 (centres undefined) : ____
Resp: > 100 µM (inactive)

Req: Reported GI50, compound CC(=O)NC(C)(C)C1CC=C(C)CC1 (centres undefined) : ____
Resp: > 100 µM (inactive)

Req: Reported GI50, compound C[C@H](Nc1nc(N)c(N=O)c(=O)n1C)C(=O)O : ____
Resp: > 10 µM (inactive)

Req: Reported GI50, compound CCCCc1ccc(-n2c3nc(=O)n(C)c(=O)c-3nc3ccccc32)cc1 : ____
Resp: 10.7 µM (inactive)

###

Answer each item with its documented GI50.
- System: OVCAR-5
- ASSAY NAME: NCI tumour cell line growth inhibition, 48 h
Calls of active or inactive are those of the source. Cut-off read from the data, not from the text of the source: active = GI50 up to about 1.1 µM and inactive = higher.

Req: Hello, I am looking for reported GI50 with OVCAR-5 for C=C(C)CCOC(c1ccccc1)(c1ccccc1)c1ccccc1 . Could you help?
Resp: > 100 µM (inactive)

Req: Hello, I am looking for reported GI50 with OVCAR-5 for CCC(=O)NC(Nc1cc(C)on1)(C(F)(F)F)C(F)(F)F . Could you help?
Resp: > 100 µM (inactive)

Req: Hello, I am looking for reported GI50 with OVCAR-5 for CN(C)CCOc1ccc2[nH]c(C(=O)N3CC(CCl)c4c3cc(N)c3ccccc43)cc2c1 (stereo not given) . Could you help?
Resp: < 0.01 µM (active)

Req: Hello, I am looking for reported GI50 with OVCAR-5 for CN1COCc2c1ccc1cc3ccc4c(c3nc21)COCN4S(C)(=O)=O . Could you help?
Resp: > 100 µM (inactive)

Req: Hello, I am looking for reported GI50 with OVCAR-5 for COc1ccc2cc(-c3ccc(OC)c(OC)c3)c(=O)oc2c1 . Could you help?
Resp: > 100 µM (inactive)

Req: Hello, I am looking for reported GI50 with OVCAR-5 for Oc1ccc(-c2csc(N/N=C3\NC/C(=C/c4ccc5c(c4)OCO5)S3)n2)cc1O . Could you help?
Resp: 47.2 µM (inactive)

Req: Hello, I am looking for reported GI50 with OVCAR-5 for CCCCCCC/C=C1\CCC(CN(C)C)C1=O (stereo not given) . Could you help?
Resp: 19.8 µM (inactive)

Req: Hello, I am looking for reported GI50 with OVCAR-5 for O=P(O)(OCC(O)O)OCC(O)O . Could you help?
Resp: > 100 µM (inactive)

Req: Hello, I am looking for reported GI50 with OVCAR-5 for Cc1c(CNc2ccc(C(=O)NC(CCCNC(=O)c3ccccc3C(=O)O)C(=O)O)cc2)cnc2nc(N)nc(N)c12 (stereo not given) . Could you help?
Resp: 0.199 µM (active)

Req: Hello, I am looking for reported GI50 with OVCAR-5 for O=C(Nn1c(-c2ccccc2)nc2ccccc2c1=O)c1ccccc1O . Could you help?
Resp: 49.4 µM (inactive)

###

- Tested on: SK-MEL-5
- ASSAY NAME: NCI tumour cell line growth inhibition, 48 h
Active and inactive are the calls of the source. No stated cut-off is given here; in the data, active = GI50 up to about 1.1 µM and inactive = higher.
Answer each item with its documented GI50.

Req: Reported GI50, compound O=C(O)C1Cc2c([nH]c3ccccc23)C=N1 (configuration not stated) : ____
Resp: > 100 µM (inactive)

Req: Reported GI50, compound C=C[C@H]1CN2CCc3c([nH]c4c([C@@H]5CCCN5C)c(O)ccc34)[C@@H]2C[C@@H]1C[C@H]1c2[nH]c3ccccc3c2CCN1C : ____
Resp: 1.66 µM (inactive)

Req: Reported GI50, compound O=C(O)C1C(Br)(c2ccccc2)C1(Br)c1ccccc1 (configuration not stated) : ____
Resp: 28.8 µM (inactive)

Req: Reported GI50, compound O=P(O)(OCC(O)O)OCC(O)O : ____
Resp: > 100 µM (inactive)

Req: Reported GI50, compound COC1=C(NC(C)=O)C(=O)c2nc3n(c2C1=O)CCC3 : ____
Resp: 17.5 µM (inactive)

Req: Reported GI50, compound Cc1ccc(S(=O)(=O)NC(=O)Nc2nc(Cl)cc(Cl)n2)cc1 : ____
Resp: > 100 µM (inactive)

Req: Reported GI50, compound Fc1ccccc1C1SCc2nc3cc4ccccc4cc3n21 (configuration not stated) : ____
Resp: 71.1 µM (inactive)

Req: Reported GI50, compound S=C(NCc1ccccn1)N/N=C/c1ccccn1 : ____
Resp: 0.0184 µM (active)

Req: Reported GI50, compound CC(=O)NC1=C(NCC(C)(C)C)C(=O)c2ccccc2C1=O : ____
Resp: 40.2 µM (inactive)

Req: Reported GI50, compound O=C1NC2(C=Cc3c(ccc4ccccc34)O2)Oc2ccccc21 (configuration not stated) : ____
Resp: 13.1 µM (inactive)

Req: Reported GI50, compound CCN(CC)CCCOc1cc2c(cc1OC)C(=O)N1CCC[C@H]1C=N2 : ____
Resp: 19.6 µM (inactive)

Req: Reported GI50, compound CC1C=CC(=O)C(n2cc(F)c(=O)[nH]c2=O)O1 (configuration not stated) : ____
Resp: 17.9 µM (inactive)

###

Answer each item with its documented GI50.
- System: HOP-92
- ASSAY NAME: NCI tumour cell line growth inhibition, 48 h
The source made the active and inactive calls. No stated cut-off is given here; in the data, active = GI50 up to about 1.1 µM and inactive = higher.

Req: Reported GI50, compound CN1C(=O)NC2(O)c3ccccc3C(=O)C12O (stereo not given) : ____
Resp: > 100 µM (inactive)

Req: Reported GI50, compound CCNC(=O)Cc1nc2c(O)ncnc2n1C1OC(CO)C(O)C1O (stereo not given) : ____
Resp: > 100 µM (inactive)

Req: Reported GI50, compound COC(=O)c1cc2c(cc1CC(Cc1ccc3c(c1)CCCC3)C(=O)OC)CCCC2 (stereo not given) : ____
Resp: 44.9 µM (inactive)

Req: Reported GI50, compound CCC(=O)ONC(=O)Cn1ccc([N+](=O)[O-])n1 : ____
Resp: > 100 µM (inactive)

Req: Reported GI50, compound COC(=O)OCC1OC(N2C(=O)NC(=O)C(Br)C2N=[N+]=[N-])CC1OC(=O)OC (stereo not given) : ____
Resp: > 100 µM (inactive)

Req: Reported GI50, compound C#CCSC(C=C=C)P(=O)(OC(C)C)OC(C)C (stereo not given) : ____
Resp: > 100 µM (inactive)

Req: Reported GI50, compound Clc1ccc2c(NCCNc3ccnc4cc(Cl)ccc34)ccnc2c1 : ____
Resp: 15.2 µM (inactive)

Req: Reported GI50, compound COc1cc(/C=C/C(=O)Oc2ccc(NC(C)=O)cc2)ccc1C(=O)OCc1ccccc1 : ____
Resp: 74.3 µM (inactive)

Req: Reported GI50, compound O=Cc1c(Br)[nH]c2ccccc12 : ____
Resp: 29.6 µM (inactive)

Req: Reported GI50, compound CC(C)CC(NC(=O)C(O)C(N)Cc1ccccc1)C(=O)O (stereo not given) : ____
Resp: > 100 µM (inactive)

###

- System: SW-620
- ASSAY NAME: NCI tumour cell line growth inhibition, 48 h
Active and inactive are the calls of the source. Rule as the data show it: active = GI50 up to about 1.1 µM and inactive = higher.
Return exactly one item of Yes = active, No = inactive

Req: Dear all, I need the recorded test outcome for Nc1nc(=S)[nH]c2nc3c(c(-c4ccccc4)c12)CCCC3 , thank you.
Resp: No

Req: Dear all, I need the recorded test outcome for O=C(Nc1ccc(Cl)c(C(F)(F)F)c1)C(=O)c1c(O)c2ccccc2oc1=O , thank you.
Resp: No

Req: Dear all, I need the recorded test outcome for CCNC(=O)Cc1nc2c(O)ncnc2n1C1OC(CO)C(O)C1O (stereo unspecified) , thank you.
Resp: No

Req: Dear all, I need the recorded test outcome for CCC(=O)NC(Nc1cc(C)on1)(C(F)(F)F)C(F)(F)F , thank you.
Resp: No

Req: Dear all, I need the recorded test outcome for C#CCOCn1cc(C)c(=O)[nH]c1=O , thank you.
Resp: No

Req: Dear all, I need the recorded test outcome for Cc1cc(C(C)(C)C)cc(Cc2cc(C(C)(C)C)cc(Cc3cc(C(C)(C)C)cc(C)c3O)c2O)c1O , thank you.
Resp: No

Req: Dear all, I need the recorded test outcome for O=C(NCCNCCNC(=O)c1cc(-c2ccccc2)nc2ccccc12)c1cc(-c2ccccc2)nc2ccccc12 , thank you.
Resp: No

Req: Dear all, I need the recorded test outcome for C=C(CO)CC(O)c1cc(OC)ccc1OC (stereo unspecified) , thank you.
Resp: No

Req: Dear all, I need the recorded test outcome for CC(=O)OC[C@]1(O)CC[C@@]23CC1C[C@@H]2CCC1C(C)(C)CCC[C@@]13C (stereo partly specified) , thank you.
Resp: No

Req: Dear all, I need the recorded test outcome for Oc1ccc(-c2csc(N/N=C3\NC/C(=C/c4ccc5c(c4)OCO5)S3)n2)cc1O , thank you.
Resp: No

Req: Dear all, I need the recorded test outcome for COc1ccc2nc3cc(Cl)ccc3c(NCCCNCc3cc(OC)c(OC)c(OC)c3)c2c1 , thank you.
Resp: Yes

Req: Dear all, I need the recorded test outcome for COc1cc(/C=C/C(=O)Oc2ccc(NC(C)=O)cc2)ccc1C(=O)OCc1ccccc1 , thank you.
Resp: No

Req: Dear all, I need the recorded test outcome for COc1ccn(CC(=O)c2cc3ccccc3[nH]2)c(=O)n1 , thank you.
Resp: No

Req: Dear all, I need the recorded test outcome for CC[C@@]1(O)C(=O)OCc2c1cc1n(c2=O)Cc2c-1nc1ccccc1c2/C=N\NC(=O)C(N)=O , thank you.
Resp: No

Req: Dear all, I need the recorded test outcome for N#Cc1nc(/C=C/c2cccs2)oc1N , thank you.
Resp: No

Req: Dear all, I need the recorded test outcome for CC(=N\N)/C(C)=N/N=C(C)/C(C)=N/N , thank you.
Resp: No

Req: Dear all, I need the recorded test outcome for CCOC(=O)c1c(O)cn2c1[nH]c1cccc3cccc2c31 , thank you.
Resp: No

Req: Dear all, I need the recorded test outcome for Nc1c2ccccc2nc2ccc(C(=O)Nc3ccc(S(N)(=O)=O)cc3)cc12 , thank you.
Resp: No

Req: Dear all, I need the recorded test outcome for COC(=O)c1c(CC#N)cccc1CC#N , thank you.
Resp: No

Req: Dear all, I need the recorded test outcome for COc1ccc(NC2=NCCO2)c2ccccc12 , thank you.
Resp: No

Req: Dear all, I need the recorded test outcome for O=C(NCCCNC(=O)c1ccc2cc(O)c(O)cc2c1)c1ccc2cc(O)c(O)cc2c1 , thank you.
Resp: No

Req: Dear all, I need the recorded test outcome for O=Cc1c(Br)[nH]c2ccccc12 , thank you.
Resp: No

Req: Dear all, I need the recorded test outcome for COc1cc(/C=C2\CCC(C)C3=C2N=c2s/c(=C/c4ccc(Cl)cc4)c(=O)n2C3c2cc(OC)c(OC)c(OC)c2)cc(OC)c1OC (stereo unspecified) , thank you.
Resp: No

Req: Dear all, I need the recorded test outcome for CC1=C(C(=O)Nc2c(C)cccc2C)C(c2ccc3c(c2)OCO3)C(C(=O)Nc2c(C)cccc2C)=C(C)N1 , thank you.
Resp: No

Req: Dear all, I need the recorded test outcome for CCOC(=O)N1CCc2cc(OC)c(OC)c3c2C1CC3=O (stereo unspecified) , thank you.
Resp: No

Req: Dear all, I need the recorded test outcome for C=CCC1(C)CCCN(Cc2ccccc2)C1=O (stereo unspecified) , thank you.
Resp: No

Req: Dear all, I need the recorded test outcome for O=C1NC2(C=Cc3c(ccc4ccccc34)O2)Oc2ccccc21 (stereo unspecified) , thank you.
Resp: No

Req: Dear all, I need the recorded test outcome for COC(=O)OCC1OC(N2C(=O)NC(=O)C(Br)C2N=[N+]=[N-])CC1OC(=O)OC (stereo unspecified) , thank you.
Resp: No

Req: Dear all, I need the recorded test outcome for O=C1c2ccccc2N2OC3(N4CCCC4)CCCC3C12c1ccccc1 (stereo unspecified) , thank you.
Resp: No

Req: Dear all, I need the recorded test outcome for CSc1c(C#N)c(N)nc2c(/N=N\c3ccc(Cl)cc3)c(N)nn12 , thank you.
Resp: No

Req: Dear all, I need the recorded test outcome for O=C1NC(=O)C(CCC(=O)c2cccc3ccccc23)C(=O)N1 , thank you.
Resp: No

Req: Dear all, I need the recorded test outcome for S=C(NCc1ccccn1)N/N=C/c1ccccn1 , thank you.
Resp: Yes

Req: Dear all, I need the recorded test outcome for Cn1cnc([N+](=O)[O-])c1Sc1nc2cc([N+](=O)[O-])ccc2[nH]1 , thank you.
Resp: No

Req: Dear all, I need the recorded test outcome for CCC/C(Cl)=N/OC(=O)Nc1cccc(F)c1 , thank you.
Resp: No

Req: Dear all, I need the recorded test outcome for Cc1ccc2c(c1)/C(=N/Nc1ccccc1[N+](=O)[O-])C(=O)N2 , thank you.
Resp: No

Req: Dear all, I need the recorded test outcome for COc1ccc2c(c1)CCCc1c-2nc2ccccc2c1N , thank you.
Resp: No
